- Tested on: PCSK9 gene
- PROTOCOL TEXT: PCSK9 gRNA/SpCas9 editing in primary cynomolgus hepatocytes (Tables 2, 22)
- Assay type: cell-based, cynomolgus monkey
- COND: 500 ng/RNA/mL; SpCas9 mRNA MS002 1:1 by weight
In the oligonucleotide strings, read from the 5' end, every base follows the letter of its sugar. An asterisk marks phosphorothioate; unmarked linkages are phosphodiester. Other units and linkages are bracketed, terminal groups are in braces. A string of capitals states the bases alone. m = 2'-O-methyl; r = 2'-OH (RNA)
Friendly reminder: Cyno Primary Hepatocyte Editing % 500 below 8% is yes, at or above is no.

GA205: PCSK9 gRNA; protospacer CCCTGCCCTCGATTTCCCGG (SEQ ID NO: 199) (nucleic acid, sugars from the 5' end m3 r94 m3, linkages s3 o93 s3 (s phosphorothioate, o phosphodiester), T or U not given here) guide: CCCUGCCCUCGAUUUCCCGGGUUUUAGAGCUAGAAAUAGCAAGUUAAAAUAAGGCUAGUCCGUUAUCAACUUGAAAAAGUGGCACCGAGUCGGUGCUUUU
no

Query string: Answer whether the molecule GA197: PCSK9 gRNA; protospacer AGTGACCACCGGGAAATCGA (SEQ ID NO: 191) (nucleic acid, sugars from the 5' end m3 r94 m3, linkages s3 o93 s3 (s phosphorothioate, o phosphodiester), T or U not given here) guide: AGUGACCACCGGGAAAUCGAGUUUUAGAGCUAGAAAUAGCAAGUUAAAAUAAGGCUAGUCCGUUAUCAACUUGAAAAAGUGGCACCGAGUCGGUGCUUUU has Cyno Primary Hepatocyte Editing % 500 strictly less than 8%
Result string: yes

Query string: GA186: PCSK9 gRNA; protospacer CTCATCTTCACCAGGAAGCC (SEQ ID NO: 180) (nucleic acid) guide: mC*mU*mC*rArUrCrUrUrCrArCrCrArGrGrArArGrCrCrGrUrUrUrUrArGrArGrCrUrArGrArArArUrArGrCrArArGrUrUrArArArArUrArArGrGrCrUrArGrUrCrCrGrUrUrArUrCrArArCrUrUrGrArArArArArGrUrGrGrCrArCrCrGrArGrUrCrGrGrUrGrCrU*mU*mU*mU , same question.
Result string: yes

Query string: Let us now turn to GA184: PCSK9 gRNA; protospacer ATGGAAGACATGCAGGATCT (SEQ ID NO: 178) (nucleic acid) guide: mA*mU*mG*rGrArArGrArCrArUrGrCrArGrGrArUrCrUrGrUrUrUrUrArGrArGrCrUrArGrArArArUrArGrCrArArGrUrUrArArArArUrArArGrGrCrUrArGrUrCrCrGrUrUrArUrCrArArCrUrUrGrArArArArArGrUrGrGrCrArCrCrGrArGrUrCrGrGrUrGrCrU*mU*mU*mU
Result string: no

Query string: Queued: GA225: PCSK9 gRNA; protospacer GGCATCGTCCCGGAAGTTGC (SEQ ID NO: 219) (nucleic acid, sugars from the 5' end m3 r94 m3, linkages s3 o93 s3 (s phosphorothioate, o phosphodiester), T or U not given here) guide: GGCAUCGUCCCGGAAGUUGCGUUUUAGAGCUAGAAAUAGCAAGUUAAAAUAAGGCUAGUCCGUUAUCAACUUGAAAAAGUGGCACCGAGUCGGUGCUUUU
Result string: yes

Query string: Now try GA159: PCSK9 gRNA; protospacer GCGTTCCGAGGAGGACGGCC (SEQ ID NO: 153) (nucleic acid) guide: mG*mC*mG*rUrUrCrCrGrArGrGrArGrGrArCrGrGrCrCrGrUrUrUrUrArGrArGrCrUrArGrArArArUrArGrCrArArGrUrUrArArArArUrArArGrGrCrUrArGrUrCrCrGrUrUrArUrCrArArCrUrUrGrArArArArArGrUrGrGrCrArCrCrGrArGrUrCrGrGrUrGrCrU*mU*mU*mU .
Result string: yes

Query string: Now consider GA170: PCSK9 gRNA; protospacer CCAGGACCGCCTGGAGCTGA (SEQ ID NO: 164) (nucleic acid, sugars from the 5' end m3 r94 m3, linkages s3 o93 s3 (s phosphorothioate, o phosphodiester), T or U not given here) guide: CCAGGACCGCCUGGAGCUGAGUUUUAGAGCUAGAAAUAGCAAGUUAAAAUAAGGCUAGUCCGUUAUCAACUUGAAAAAGUGGCACCGAGUCGGUGCUUUU and answer again.
Result string: no

Query string: And the next one, GA168: PCSK9 gRNA; protospacer CTTGGCGCAGCGGTGGAAGG (SEQ ID NO: 162) (nucleic acid, sugars from the 5' end m3 r94 m3, linkages s3 o93 s3 (s phosphorothioate, o phosphodiester), T or U not given here) guide: CUUGGCGCAGCGGUGGAAGGGUUUUAGAGCUAGAAAUAGCAAGUUAAAAUAAGGCUAGUCCGUUAUCAACUUGAAAAAGUGGCACCGAGUCGGUGCUUUU ?
Result string: no

Query string: Please give the result for GA240: PCSK9 gRNA; protospacer TGCCAGCGCCTGGCGAGGGC (SEQ ID NO: 233) (nucleic acid, sugars from the 5' end m3 r94 m3, linkages s3 o93 s3 (s phosphorothioate, o phosphodiester), T or U not given here) guide: UGCCAGCGCCUGGCGAGGGCGUUUUAGAGCUAGAAAUAGCAAGUUAAAAUAAGGCUAGUCCGUUAUCAACUUGAAAAAGUGGCACCGAGUCGGUGCUUUU too.
Result string: yes

Query string: And what about the molecule GA238: PCSK9 gRNA; protospacer GCACGACCCCAGCCCTCGCC (SEQ ID NO: 231) (nucleic acid, sugars from the 5' end m3 r94 m3, linkages s3 o93 s3 (s phosphorothioate, o phosphodiester), T or U not given here) guide: GCACGACCCCAGCCCUCGCCGUUUUAGAGCUAGAAAUAGCAAGUUAAAAUAAGGCUAGUCCGUUAUCAACUUGAAAAAGUGGCACCGAGUCGGUGCUUUU ?
Result string: yes

Query string: Moving on to GA215: PCSK9 gRNA; protospacer CAGCGGCCGGGATGCCGGCG (SEQ ID NO: 209) (nucleic acid, sugars from the 5' end m3 r94 m3, linkages s3 o93 s3 (s phosphorothioate, o phosphodiester), T or U not given here) guide: CAGCGGCCGGGAUGCCGGCGGUUUUAGAGCUAGAAAUAGCAAGUUAAAAUAAGGCUAGUCCGUUAUCAACUUGAAAAAGUGGCACCGAGUCGGUGCUUUU
Result string: yes
